# protocol_text: qHTS for Inhibitors of human tyrosyl-DNA phosphodiesterase 1 (TDP1): qHTS in cells in presence of CPT; further: nearly all actives have a fitted effect of over 55% in size
# assay_setup: chicken DT40 Tdp1-/-;hTDP1 cells + 20 nM CPT, ATP luminescence, 48 h; series mostly up to 46.2 µM
Among all 420,000 compounds or so, about 50,000 (12%) were called active. Another 26% or so got no clear call; they are omitted. The call rests on the fitted dose curve; in most records, active means well fitted inhibition curve with a large enough effect; inconclusive means small, poorly fitted or top-dose-only effect; inactive means flat fitted curve, though single readings scatter. For the sample, actives were picked, then their nearest neighbours and some compounds at random.
Returns: one label drawn from 1 for active, 0 for inactive

Worked cases, answers included:
>  <compound>
Cc1cc(C)c2oc(C(=O)Nc3ccc(S(=O)(=O)Nc4nccc(C)n4)cc3)cc(=O)c2c1

>  <class_assignment>
0

$$$$
>  <compound>
COc1ccc(CN2C(=O)C(CC(=O)NC3CCCCC3)CC(C(=O)N3CCOCC3)=C2C)cc1 (stereo unspecified)

>  <class_assignment>
0

$$$$
>  <compound>
COn1c(=O)c(=O)n(OC)c2ccccc21

>  <class_assignment>
0

$$$$
>  <compound>
O=C(NC1CC1)C(Cc1ccccc1)NS(=O)(=O)c1ccccc1F (stereo unspecified)

>  <class_assignment>
1

$$$$
>  <compound>
COc1ccc(CCNc2nc(C)cc(C)n2)cc1OC

>  <class_assignment>
0

$$$$
>  <compound>
CCn1c(SCc2cccc(C(=O)O)c2)nnc1-c1ccc(Cl)cc1

>  <class_assignment>
0

$$$$

Now for another entry.
// outcome(item) with item = COc1cccc(C(=O)NC2=NC(c3ccc(N(C)C)cc3)CC(=O)N2)c1 (stereo unspecified)
0

###

# protocol_text: qHTS for Inhibitors of human tyrosyl-DNA phosphodiesterase 1 (TDP1): qHTS in cells in presence of CPT; further: nearly all actives have a fitted effect of over 55% in size
# assay_setup: chicken DT40 Tdp1-/-;hTDP1 cells + 20 nM CPT, ATP luminescence, 48 h; series mostly up to 46.2 µM
The whole screen tested about 420,000 compounds, of which about 50,000 (12%) were called active. Another 26% or so got no clear call; they are omitted. Calls follow the shape of the dose curve; as a rule, active = well fitted inhibition curve with a large enough effect; inconclusive = small, poorly fitted or top-dose-only effect; inactive = flat fitted curve, though single readings scatter. Shown is part of a subset that was picked to be rich in actives.
Choose the fitting class; nothing outside label 1 (active), label 0 (inactive) is accepted.

Each compound tested received a call. Report the one for CCOc1cccc2cc(C(=O)OCC(=O)Nc3c(C)cccc3CC)c(=O)oc12 .
label 0

// next record COc1ccc(-c2c3c(=O)n(C)c(=O)n(C)c3cn2-c2cccc(OC)c2)cc1
label 1

Also Cc1ccc(-c2c3c(=O)n(C)c(=O)n(C)c3cn2-c2ccccc2O)cc1 , if possible.
label 0

Same question, COc1ccc(-c2[nH]c3c(c2-c2c(-n4cccc4)n(C)c(=O)n(C)c2=O)c(=O)n(C)c(=O)n3C)cc1 this time
label 0

Follow-up entry: Cc1[nH]c(C)c(S(=O)(=O)N2CCC(C)CC2)c1C(=O)N1CCCC1
label 0

Do the same for COc1cccc(-n2cc3c(c2-c2ccccc2)c(=O)n(C)c(=O)n3C)c1 please
label 1

Please do the same for CCOc1ccc(CCNC(=O)COC(=O)CCS(=O)(=O)c2ccc(C)cc2)cc1OCC as well.
label 0

Same read-out for Cc1nnsc1C(=O)NCc1c(F)cccc1Cl ?
label 0

Quick one: COc1ccc(NC(=O)CSCc2ccc([N+](=O)[O-])cc2)cc1OC
label 0

Also COc1ccc(-c2c3c(=O)n(C)c(=O)n(C)c3cn2NC(C)=O)cc1 , if possible.
label 0

What about this compound? CN(C(=O)COC(=O)CCCc1c[nH]c2ccccc12)c1c(N)n(Cc2ccccc2)c(=O)[nH]c1=O
label 0

Also Cc1noc(C)c1S(=O)(=O)N(C)Cc1ccccc1 ?
label 0

Moving on to the next compound: O=C(c1ccc2c(c1)C(=O)N(Cc1ccncc1)C2=O)N1CCN(S(=O)(=O)c2ccc(OC(F)(F)F)cc2)CC1
label 0

Thanks! And Cc1[nH]c(C)c(S(=O)(=O)N2CCN(c3cccc(C(F)(F)F)c3)CC2)c1C(=O)N1CCCC1 ?
label 1

Next up: O=C(COc1cc2oc(=O)c3c(c2cc1Cl)CCC3)NCCCN1CCOCC1
label 0

And COc1ccc(S(=O)(=O)NC(C)C(=O)NCc2ccncc2)cc1Cl (stereo not given) ?
label 0

Now give it for CCC1(CC)NC(=O)N(CC(=O)OCC(=O)c2cc(C)c(C)cc2C)C1=O too.
label 0

Repeat for the following compound: O=C1CC(=O)Nc2cc(S(=O)(=O)N3CCN(c4cccc(C(F)(F)F)c4)CC3)ccc2N1
label 0

And the next one, Cc1ccc(C)c(NS(=O)(=O)c2c(C)[nH]c(C)c2C(=O)N2CCCCC2)c1 ?
label 0

Also CCCCOc1ccc(CSC(=N)N)cc1[N+](=O)[O-] ?
label 1
